# EXPERIMENTAL_TARGET: Cytochrome P450 2C19 (Homo sapiens) (UniProt P33261)
# Sequence (P33261 whole entry, looked up): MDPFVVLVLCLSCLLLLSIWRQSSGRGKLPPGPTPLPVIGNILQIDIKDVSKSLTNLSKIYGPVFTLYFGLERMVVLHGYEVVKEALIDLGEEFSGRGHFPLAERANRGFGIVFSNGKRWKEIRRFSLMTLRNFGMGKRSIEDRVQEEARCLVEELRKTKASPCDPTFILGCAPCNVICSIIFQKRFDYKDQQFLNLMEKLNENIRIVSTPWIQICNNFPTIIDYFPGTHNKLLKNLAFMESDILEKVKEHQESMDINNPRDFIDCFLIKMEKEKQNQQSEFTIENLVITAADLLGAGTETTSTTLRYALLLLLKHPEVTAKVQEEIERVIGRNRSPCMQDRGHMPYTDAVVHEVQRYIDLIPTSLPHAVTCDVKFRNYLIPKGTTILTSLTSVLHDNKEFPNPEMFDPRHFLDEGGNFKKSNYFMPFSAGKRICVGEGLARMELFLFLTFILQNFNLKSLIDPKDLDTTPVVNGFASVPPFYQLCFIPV
# TEST_DESCRIPTION: Cytochrome panel assay with activity outcomes; for activity, negative = inhibition: % is set by controls: 0 for no effect and ±100 for the full control effect
# SETTINGS: recombinant CYP, pro-luciferin dealkylation, luminescence, p450-cyp2c19; series mostly up to 57.1 µM
The campaign covered roughly 16,000 compounds. About 5,800 (36%) were called active. Another 23% or so got no clear call; they are omitted. The list shows a part of the results.
MEASUREMENT_NAME: activity, negative = inhibition

Could you tell me activity, negative = inhibition for each of these compounds? They are listed below.
1. O=C(Oc1ccc2c(c1)CN(Cc1ccccc1)CO2)c1ccccc1
2. Cn1c(=O)n2n(c1=O)[C@H]1[C@H](O)[C@H]3O[C@H]3C(=O)[C@H]1CC2
3. CO[C@H]1COC(=O)C/C=C\[C@@H](C)COC(=O)[C@@H](C)NC(=O)C/C=C\[C@@H]1C
4. O=C(CN1C(=O)c2ccccc2C1=O)NC1(C(=O)O)CCCC1
5. C/C(CCN1CCCc2nc(C)c(C)cc21)=N\OC[C@@H](C)[C@H](OCc1ccccc1)C(C)C
6. OCCCNc1ncnc2[nH]ncc12
7. CON(C)C(=O)c1nnc2c(n1)[nH]c1ccccc12

Result:
["-25.4% [at 11.4 µM] (inactive)", "20.1% [at 11.4 µM] (inactive)", "16.7% [at 11.4 µM] (inactive)", "20.8% [at 11.4 µM] (inactive)", "-29.2% [at 11.4 µM] (inactive)", "36.5% [at 11.4 µM] (inactive)", "-38.3% [at 11.4 µM] (inactive)"]

----------
# EXPERIMENTAL_TARGET: Cytochrome P450 2C19 (Homo sapiens)
# TEST_DESCRIPTION: Cytochrome panel assay with activity outcomes
# SETTINGS: recombinant CYP, pro-luciferin dealkylation, luminescence, p450-cyp2c19; series mostly up to 57.1 µM
Screen size: about 16,000 compounds; about 5,800 (36%) were called active. About 23% were inconclusive and are not listed. The call rests on the fitted dose curve; in most records, active means well fitted curve in the direction sought with a large enough effect; inconclusive means small, poorly fitted or top-dose-only effect, or effect the other way; inactive means no such curve, though single readings can be large or run the other way. The list shows a part of the results.
Your answer must be one of the following: active, inactive

Please review the entries below; each comes with its answer.
molecule="CCSc1nc2c(c(=O)[nH]1)C(c1ccncc1)C(C(=O)OC(C)C)=C(C)N2 (centres undefined)" assigned_category=active
molecule=CCOc1ccc(-c2cc(CCCC(=O)NCCc3ccc(OC)c(OC)c3OC)no2)cc1 assigned_category=active
molecule="CSc1nc2c(c(=O)[nH]1)C(c1ccncc1)C(C(=O)OC(C)C)=C(C)N2 (centres undefined)" assigned_category=active
molecule=O=C(NC(=S)Nc1ccc(C(=O)N2CCOCC2)cc1)c1ccc([N+](=O)[O-])cc1 assigned_category=inactive

Ask: I would be grateful if you could indicate the recorded call for CCSc1nc2c(c(=O)[nH]1)C(c1ccccn1)C1=C(CC(C)(C)CC1=O)N2 (centres undefined) .
Result: inactive

Ask: I would be grateful if you could indicate the recorded call for COC(=O)c1c(-c2cc(OC)c(OC)c(OC)c2)c2ccnc(OCc3ncccn3)c2c(=O)n1Cc1ccnc(C)c1 .
Result: inactive

Ask: I would be grateful if you could indicate the recorded call for CCOC(=O)c1ccc(S(=O)(=O)N2CCN(C)CC2)cc1 .
Result: inactive

Ask: I would be grateful if you could indicate the recorded call for Oc1cccc2ccc(SSc3ccc4cccc(O)c4n3)nc12 .
Result: active

Ask: I would be grateful if you could indicate the recorded call for CC(=O)O[C@]1(C(C)=O)CC[C@@H]2[C@@H]3C=C(Cl)C4=CC(=O)[C@H]5C[C@@H]5[C@]4(C)[C@H]3CC[C@]21C .
Result: inactive

----------
# EXPERIMENTAL_TARGET: Cytochrome P450 2C19 (Homo sapiens) (UniProt P33261)
# TEST_DESCRIPTION: Cytochrome panel assay with activity outcomes
# SETTINGS: recombinant CYP, pro-luciferin dealkylation, luminescence, p450-cyp2c19; series mostly up to 57.1 µM
About 5,800 (36%) of roughly 16,000 compounds were called active. About 23% were inconclusive and are not listed. The call rests on the fitted dose curve; in most records, active means well fitted curve in the direction sought with a large enough effect; inconclusive means small, poorly fitted or top-dose-only effect, or effect the other way; inactive means no such curve, though single readings can be large or run the other way. Some of the results follow.
Your answer must be one of the following: 1.0 = active, 0.0 = inactive

compound="O=C(Nc1ncc(Cc2ccccc2)s1)C1COc2ccccc2O1 (stereo not drawn)" assigned_category=0.0
compound=CCN(CC(=O)Nc1ccc([N+](=O)[O-])cc1OC)c1ccccc1 assigned_category=1.0
compound=Cc1csc(NC(=O)CNS(=O)(=O)c2cccs2)n1 assigned_category=1.0

Ask: I would be grateful if you could indicate the recorded call for O=C(CCc1nc(-c2ccccc2)c(-c2ccccc2)o1)OCc1ccc(Cl)cc1 .
Result: 1.0

Ask: I would be grateful if you could indicate the recorded call for O=C(NC12CC3CC(CC(C3)C1)C2)c1ccc(COc2ccc(Cl)cc2[N+](=O)[O-])o1 .
Result: 1.0

Ask: I would be grateful if you could indicate the recorded call for CS[C@]12C(=O)C[C@]3(C)[C@@H](CC[C@@]3(O)C(=O)CO)[C@@H]1CCC1=CC(=O)CC[C@]12C .
Result: 1.0

Ask: I would be grateful if you could indicate the recorded call for CC(=O)N1CCC2(CCCN(c3cccc(-c4ccccc4)c3)C2)CC1 .
Result: 1.0

----------
# EXPERIMENTAL_TARGET: Cytochrome P450 2C19 (Homo sapiens) (UniProt P33261)
# TEST_DESCRIPTION: Cytochrome panel assay with activity outcomes; for activity, negative = inhibition: % is set by controls: 0 for no effect and ±100 for the full control effect
# SETTINGS: recombinant CYP, pro-luciferin dealkylation, luminescence, p450-cyp2c19; series mostly up to 57.1 µM
The campaign covered roughly 16,000 compounds. About 5,800 (36%) were called active. About 23% were inconclusive and are not listed. The list shows a part of the results.
Hi there, I'd appreciate the recorded activity, negative = inhibition for every entry that follows.

Would you please look over these solved cases?
molecule=C=CC[C@@H]1C=C[C@H](O/N=C(\C)CCN2CCc3nc(-c4ccccc4)c(-c4ccccc4)cc3C2)[C@H](CO)O1 measurement_name="activity, negative = inhibition" test_result="-25.6% [at 11.4 µM] (inactive)"
molecule=CCCNC(=O)OC[C@@H]1O[C@H](CCO/N=C(\C)CCN2CCCc3nc(C)c(C)cc32)C=C[C@@H]1Oc1ccc(OC)cc1 measurement_name="activity, negative = inhibition" test_result="-43.5% [at 11.4 µM] (inactive)"

Could you tell me activity, negative = inhibition for each of these molecules? They are listed below.
1. O=C(O)C[C@H](Cc1ccccc1)C(=O)O
2. CCc1cc2c(nc1CC)CCN(CC/C(C)=N/OC[C@@H](C)[C@H](OCc1ccccc1)C(C)C)C2
3. C[C@H](c1ccccc1)N1C(=O)[C@H]2[C@@H]3[C@H](O)[C@H](O)CC(=O)[C@H]3CC[C@H]2C1=O
4. CO[C@H]1COC(=O)C/C=C\[C@H](C)[C@@H](NS(=O)(=O)c2ccc(C)cc2)COC(=O)CCC[C@@H]1C
5. CC12CC[C@@H]3c4ccc(OP(=O)(O)O)cc4CCC3C1CCC2=O (stereo partly drawn)
6. CCCNC(=O)OC[C@@H]1O[C@H](CCO/N=C(\C)CCN2CCCCc3nc(C)c(C)cc32)C=C[C@@H]1Oc1ccc(OC)cc1

Result:
1: -9.67% [at 11.4 µM] (inactive); 2: -15.6% [at 11.4 µM] (inactive); 3: -0.855% [at 11.4 µM] (inactive); 4: -36% [at 11.4 µM] (inactive); 5: -12.5% [at 11.4 µM] (inactive); 6: -12.9% [at 11.4 µM] (inactive)

----------
# EXPERIMENTAL_TARGET: Cytochrome P450 2C19 (Homo sapiens) (UniProt P33261)
# TEST_DESCRIPTION: Cytochrome panel assay with activity outcomes; for activity, negative = inhibition: % is set by controls: 0 for no effect and ±100 for the full control effect
# SETTINGS: recombinant CYP, pro-luciferin dealkylation, luminescence, p450-cyp2c19; series mostly up to 57.1 µM
The whole screen tested about 16,000 compounds, of which about 5,800 (36%) were called active. Inconclusive results (about 23%) are left out. The list shows a part of the results.
MEASUREMENT_NAME: activity, negative = inhibition

Would you please look over these solved cases?
chemical_structure=COC(=O)[C@H](CCSC)NC(=O)C/C=C\[C@@H](C)[C@@H](CO)OC measurement_name="activity, negative = inhibition" test_result="-1.07% [at 11.4 µM] (inactive)"
chemical_structure=CCc1c(O)c2c(c(O)c1C(C)=O)C(=O)c1c(cc(O)c(C(=O)O)c1C(=O)O)C2=O measurement_name="activity, negative = inhibition" test_result="-9.38% [at 11.4 µM] (inactive)"
chemical_structure=O=P(O)(CCP(=O)(O)c1ccccc1)c1ccccc1 measurement_name="activity, negative = inhibition" test_result="2.23% [at 11.4 µM] (inactive)"
chemical_structure=Nc1ncnc2c1ncn2[C@H]1O[C@@H](C(=O)O)[C@@H](O)[C@H]1O measurement_name="activity, negative = inhibition" test_result="-9.53% [at 11.4 µM] (inactive)"
chemical_structure=CC(=O)O[C@H]1C2=CO[C@H](C)[C@H]3[C@H]4C5=C([C@H](O)[C@H]6O[C@@H]6C5=O)[C@H](O[C@H]4C)[C@@]23C(=O)[C@H]2O[C@@H]21 measurement_name="activity, negative = inhibition" test_result="11.4% [at 11.4 µM] (inactive)"

Could you tell me activity, negative = inhibition for each of these compounds? They are listed below.
1. CC(C)NC1(C(N)=O)CCN(Cc2ccccc2)CC1
2. CO[C@@H]1/C=C\CC(=O)N[C@@H](C)C(=O)OC[C@@H](OC)[C@H](C)CCCC(=O)OC[C@H]1C
3. O=C1C(=O)c2ccccc2C(O)=C1C(CCc1ccccc1)C1=C(O)c2ccccc2C(=O)C1=O

Result:
["-1.03% [at 11.4 µM] (inactive)", "-3.19% [at 11.4 µM] (inactive)", "21.7% [at 11.4 µM] (inactive)"]
